target: TAK1-TAB1 fusion protein (Homo sapiens); construct: purchased Carna; assay: TAK1 biochemical assay (AlphaScreen, GST-MAP2K7 substrate); conditions: TAK1-TAB1 fusion protein, GST-MAP2K7 substrate; read-out: mean TAK1 IC50 (Col. A)
MEASURE NAME: IC50

Before answering, review these 6 worked examples.
# input So what does the record say about IC50 for N#Cc1cc(-c2cc3c(-c4cnn([C@H]5CC[C@H](O)CC5)c4)cnc(N)c3o2)ccc1N ?
# output 100 to 1000 nM

# input And Nc1ncc(-c2cnn(C3CCN(C(=O)Nc4cccc(Cc5ccccc5)c4)CC3)c2)c2cc(-c3cccc4cnsc34)oc12 ?
# output 1000 to 10000 nM

# input And CC(=O)N1CCC(n2cc(-c3cnc(N)c4oc(-c5ccc6[nH]nnc6c5)cc34)cn2)CC1 ?
# output < 100 nM

# input And CC(=O)N1CCC(n2cc(-c3cnc(N)c4oc(-c5ccc6cc[nH]c6c5)cc34)cn2)CC1 ?
# output 1000 to 10000 nM

# input And Nc1ncc(-c2cnn([C@@H]3CCC[C@H](O)C3)c2)c2cc(-c3csc4cnccc34)oc12 (relative stereo) ?
# output < 100 nM

# input And CC(=O)N1CCC(n2cc(-c3cnc(N)c4oc(-c5cccc(CN)c5)cc34)cn2)CC1 ?
# output 100 to 1000 nM

Next:
# input So what does the record say about IC50 for CC(=O)N1CCC(n2cc(-c3cnc(N)c4oc(-c5cccc(S(C)(=O)=O)c5)cc34)cn2)CC1 ?
# output 1000 to 10000 nM

###

tested on: pJNK in HCT-116 cells; assay: Phospho-JNK (Thr183/Tyr185) Meso Scale ELISA assay, TNFα-stimulated HCT-116 cells; format: cell-based; settings: Homo sapiens, read-out: mean HCT-116 pJNK ELISA IC50 (Col. B)
Where a name gives a salt, the structure may show the parent alone.
MEASURE NAME: IC50

# input Short answer please: IC50, pJNK in HCT-116 cells, entry Nc1ncc(-c2cnn([C@H]3CC[C@H](O)CC3)c2)c2cc(-c3ccc(F)c4cnsc34)oc12 [Example 230, diformate salt]
# output 100 to 1000 nM

# input And CCNc1nc2cccc(-c3cc4c(-c5cnn([C@H]6CC[C@H](O)CC6)c5)cnc(N)c4o3)c2s1 [Example 355] ?
# output < 100 nM

Next:
# input Short answer please: IC50, pJNK in HCT-116 cells, entry Nc1ncc(-c2cnn([C@H]3CC[C@H](O)CC3)c2)c2c(Cl)c(-c3cccc4cnsc34)oc12 [Example 285, trifluoroacetic Acid Salt]
# output 100 to 1000 nM

###

Target: TAK1-TAB1 fusion protein (Homo sapiens, UniProt O43318)
Construct: purchased Carna
Sequence (O43318 with tags, fused parts or gaps limits assumed): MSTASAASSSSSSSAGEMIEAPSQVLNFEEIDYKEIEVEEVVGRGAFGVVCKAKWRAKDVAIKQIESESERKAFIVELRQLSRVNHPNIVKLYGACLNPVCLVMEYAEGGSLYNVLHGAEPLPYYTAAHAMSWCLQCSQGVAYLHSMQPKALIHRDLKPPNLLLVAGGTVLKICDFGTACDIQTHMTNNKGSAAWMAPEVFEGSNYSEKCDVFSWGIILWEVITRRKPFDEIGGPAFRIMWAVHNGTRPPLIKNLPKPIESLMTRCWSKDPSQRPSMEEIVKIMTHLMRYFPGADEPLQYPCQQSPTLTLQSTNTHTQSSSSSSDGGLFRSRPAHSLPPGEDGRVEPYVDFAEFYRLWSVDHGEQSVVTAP
Assay: TAK1 biochemical assay (AlphaScreen, GST-MAP2K7 substrate)
Settings: TAK1-TAB1 fusion protein, GST-MAP2K7 substrate; read-out: mean TAK1 IC50 (Col. A)
MEASURE NAME: IC50

Before answering, review these 3 worked examples.
# input So what does the record say about IC50 for CC(=O)N1CCC(n2cc(-c3cnc(N)c4oc(-c5ccc6occc6c5)cc34)cn2)CC1 [Example 114] ?
# output 1000 to 10000 nM

# input And Nc1ncc(-c2cnn([C@H]3CC[C@H](O)CC3)c2)c2cc(-c3ccc4cn[nH]c4c3)oc12 [Example 406] ?
# output 100 to 1000 nM

# input And CC(=O)N1CCC(n2cc(-c3cnc(N)c4oc(-c5cccc(N)c5)cc34)cn2)CC1 [Example 130] ?
# output 100 to 1000 nM

Moving on to the next compound.
# input So what does the record say about IC50 for CCSc1ccccc1-c1cc2c(-c3cnn(C4CCN(C(C)=O)CC4)c3)cnc(N)c2o1 [Example 217] ?
# output 100 to 1000 nM
